system: EpCAM; test: Spot phage ELISA, EpCAM; assay type: binding, human; conditions: spot phage ELISA signal-to-noise on EpCAM
Where no end group is shown, it is not given here.
Please assign a class to every record based on measured S/N, with ranges b0 (below 9), b1 (9 to below 20), b2 (20 or more)

Q: # bin label for GPTQSHYGQCGGMGYHGAISCSGTTCQPIIFPVSQCLPGAS (disulfide (positions not given here)) [EpCAM CBD 19]
Result: b1

Q: Determine which band this sequence sits in: GCPRILMRCKQDSDCLAGCVCWPGWPCG (disulfide (positions not given here)) [EpCAM EET I-II 7]
Result: b2

Q: Which band does GPTQSHYGQCGGPGYPGYIRCSGTTCQWIHSRTSQCLPGAS (disulfide (positions not given here)) [EpCAM CBD 89] fall in?
Result: b0

* * *

Quick list: S/N per entry.
tested on: CD16A; assay: Spot phage ELISA, CD16A; format: binding, human; conditions: spot phage ELISA signal-to-noise on CD16A
Where no end group is shown, it is not given here.
// no unit, no text: just the number

GCDWLEVECKQDSDCLAGCVCLISPYCG (disulfide (positions not given here)) [CD16A EETI-II 39] :: 16.3
GCMDTPWKGACKQDSDCLAGCVCGPNGFCG (disulfide (positions not given here)) [CD16A EETI-II 19] :: 18.2
GCDAKLQQCKQDSDCLAGCVCEEAVICG (disulfide (positions not given here)) [CD16A EETI-II 2] :: 22.9
GCQDPWGEAMQCKQDSDCLAGCVCGPNGFCG (disulfide (positions not given here)) [CD16A EETI-II 15] :: 25.7
GPTQSMGGSCGGIGYSGPTVCASGTTCQVLDPYISMCLPGAS (disulfide (positions not given here)) [CD16A CBD 5] :: 16.5
GCPRILMRCKQDSDCLAGYVCDPWGVCD (disulfide (positions not given here)) [CD16A EETI-II 30] :: 23.2

Q: Check the records and state S/N for GCSGNAMNCKQDSDCLAGCVCDPWGKCD (disulfide (positions not given here)) [CD16A EETI-II 25]
Result: 19.7

Q: Indicate the recorded S/N value for this sequence: GCPWWWVVSCKQDSDCLAGCVCYLQENCG (disulfide (positions not given here)) [CD16A EETI-II 14]
Result: 17.8

Q: Please look at this sequence and report its S/N: GCQWHEMTCKQDSDCLAGCVCWESPWCG (disulfide (positions not given here)) [CD16A EETI-II 36]
Result: 15.9

Q: Given GCIATVDHCKQDSDCLAGCVCEPFHVCG (disulfide (positions not given here)) [CD16A EETI-II 4] , respond with its S/N.
Result: 20.2

Q: Answer with reported S/N of GCAVDPWGKQMTCKQDSDCLAGCVCGPNGFC (disulfide (positions not given here)) [CD16A EETI-II 33]
Result: 19.5

Q: Check the records and state S/N for GCQFMKTECKQDSDCLAGCVCYESPWCG (disulfide (positions not given here)) [CD16A EETI-II 22]
Result: 19.0

Q: # return recorded S/N for input GCQWIQVNCKQDSDCLAGCVCWVSPYCG (disulfide (positions not given here)) [CD16A EETI-II 37]
Result: 5.8

Q: Recall and state the measured S/N for GCIETIDHCKQDSDCLAGCVCQPMRRCG (disulfide (positions not given here)) [CD16A EETI-II 13] .
Result: 20.1

* * *

Listed next: entries and their corresponding S/N.
tested on: EpCAM; test: Spot phage ELISA, EpCAM; type: binding, human; conditions: spot phage ELISA signal-to-noise on EpCAM
Where no end group is shown, it is not given here.

GPTQSHYGQCGGHGYQGIMRCSGTTCQQVYMRSSQCLPGAS (disulfide (positions not given here)) [EpCAM CBD 34] :: 15.0

Q: Entry GPTQSHYGQCGGRGYFGAIICSGTTCQYVQKHMSQCLPGAS (disulfide (positions not given here)) [EpCAM CBD 9] needs its S/N filled in; supply it.
Result: 20.9

Q: Please look at this sequence and report its S/N: GPTQSHYGQCGGDGYHGAIHCSGTTCQYVMMNRSQCLPGAS (disulfide (positions not given here)) [EpCAM CBD 59]
Result: 8.9

Q: For the sequence GPTQSHYGQCGGKGYFGAIVCSGTTCQSTQKYASQCLPGAS (disulfide (positions not given here)) [EpCAM CBD 62] , report S/N.
Result: 8.8

Q: Identify the reported S/N for the following entry. GCPRILMRCKQDSDCLAGCVLNGLVSWYT (disulfide (positions not given here)) [EpCAM EET I-II 38]
Result: 7.1

Q: Give S/N for the following sequence: GCPRSHVRVFFSCKQDSDCLAGCVCFQVVC (disulfide (positions not given here)) [EpCAM EET I-II 31]
Result: 17.4

Q: Please supply the value of reported S/N for the item GCPRILMRCKQDSDCLAGCVCENGIMCG (disulfide (positions not given here)) [EpCAM EET I-II 25]
Result: 18.6

* * *

test system: PCSK9; format: binding, human; conditions: spot phage ELISA signal-to-noise on PCSK9
Where no end group is shown, it is not given here.
In this section, each of the sequences is paired with its reported S/N.
Write no unit; give the number alone.

GCGYWFYEWFCKQDSDCLAGCVCDPNGFCG (disulfide (positions not given here)) [PCSK9 EET I-II 20] :: 9.0
GPTQSKYGMCGGIGYSGPTVCASGTTCQVLDPYTSQCLPGAS (disulfide (positions not given here)) [PCSK9 CBD 14] :: 8.8
GCGYWWKHWFCKQDSDCLAGCVCGPNGFCG (disulfide (positions not given here)) [PCSK9 EET I-II 10] :: 12.1

Q: Assign S/N to the following record: GPTQSTCGQCGGIGYSGPTVCASGTTCQVLWPTLSWCLPGAS (disulfide (positions not given here)) [PCSK9 CBD 27]
Result: 20.8

Q: Retrieve S/N measured for GCGYWWRQWFCKQGSDCLAGCVCGPNGFCG (disulfide (positions not given here)) [PCSK9 EET I-II 7] and print it.
Result: 20.9

Q: Please list S/N recorded for the sequence GPTQSAYGQCGGIGYSGPTVCASGTTCQVLWPQVSWCLPGAS (disulfide (positions not given here)) [PCSK9 CBD 23]
Result: 13.9

* * *

test system: PCSK9; type: binding, human; conditions: spot phage ELISA signal-to-noise on PCSK9
Where no end group is shown, it is not given here.
Recorded measurements of S/N, one per entry

GCGYWWKQWFCKQDSDCLAGCVCGPNGFCG (disulfide (positions not given here)) [PCSK9 EET I-II 17] :: 17.6
GCGYWWSTWFCKQDSDCLAGCVCGPNGFCG (disulfide (positions not given here)) [PCSK9 EET I-II 4] :: 15.0
GCGYWFKMWFCKQDSDCLAGCVCYPGASCG (disulfide (positions not given here)) [PCSK9 EET I-II 8] :: 9.7
GCQQGYWWWYWFCKQDSDCLAGCVCGPNGFCG (disulfide (positions not given here)) [PCSK9 EET I-II 13] :: 26.0
GPTQSQFGMCGGIGYSGPTVCASGTTCQVLDPTTSQCLPGAS (disulfide (positions not given here)) [PCSK9 CBD 2] :: 2.5
GCGYWWVQWFCKQDSDCLAGCVCGPNGFCD (disulfide (positions not given here)) [PCSK9 EET I-II 18] :: 20.1

--- query ---
Q: Provide S/N, tested on PCSK9, for GCSWVPYWCKQDSDCLAGCVCWEMVWCD (disulfide (positions not given here)) [PCSK9 EET I-II 6] .
Result: 7.0

* * *

Each item that follows carries a reported S/N.
test system: EpCAM; experiment: Spot phage ELISA, EpCAM; type: binding, human; conditions: spot phage ELISA signal-to-noise on EpCAM
Where no end group is shown, it is not given here.

GCPRILMRCKQDSDCQPVCG (disulfide (positions not given here)) [EpCAM EET I-II 10] :: 21.9

We next turn to a different sequence, shown below.
Q: Supply S/N value. Item: GCPRILMRCKQDSELSSWLCLCCSGSLC (disulfide (positions not given here)) [EpCAM EET I-II 26]
Result: 18.3

* * *

S/N: recorded values
tested on: PCSK9; format: binding, human; settings: spot phage ELISA signal-to-noise on PCSK9
Where no end group is shown, it is not given here.
// print number alone

Reference set (8 entries):
GCGYWFKMWFCKQDSDCLAGCVCYPGASCG (disulfide (positions not given here)) [PCSK9 EET I-II 12] :: 15.5
GPTQSVYGMCGGIGYSGPTVCASGTTCQVLDPTTSQCLPGAS (disulfide (positions not given here)) [PCSK9 CBD 25] :: 14.9
GPTQSPGGICGGIGYSGPTVCASGTTCQVLSPEYSQCLPGAS (disulfide (positions not given here)) [PCSK9 CBD 19] :: 15.8
GCWWWGRIHCKQDSDCLAGWGQHCG (disulfide (positions not given here)) [PCSK9 EET I-II 15] :: 44.9
GPTQSHYGLCGGIGYSGPTVCASGTTCQVLSPEFSQCLPGAS (disulfide (positions not given here)) [PCSK9 CBD 13] :: 8.0
GPTQSTYGQCGGIGYSGPTVCASGTTCQVLWPALSWCLPGAS (disulfide (positions not given here)) [PCSK9 CBD 22] :: 15.0
GCGSHFAPWFGCKQDSDCLSWLCLYAADGLW (disulfide (positions not given here)) [PCSK9 EET I-II 5] :: 18.1
GPTQSYGQCGGIGYSGPTVCASGTTCQVLWPQVSWCLPGAST (disulfide (positions not given here)) [PCSK9 CBD 6] :: 2.9

Next sequence, S/N to be filled in.
Q: State its S/N for this sequence: GCNLGYWWKQWFCKQDSDCLAGCVCERPRDCG (disulfide (positions not given here)) [PCSK9 EET I-II 2]
Result: 6.1
